Below: a set of entries, each annotated with reported Ratio.
Biological target: T1, DLK1-Fc fusion protein (Homo sapiens (Human), UniProt P80370 25-302)
T1 construct: Water-soluble DLK1 joined to a human antibody Fc region; also called DLK1-Fc-FITC; not shown: human antibody Fc region
T1 sequence: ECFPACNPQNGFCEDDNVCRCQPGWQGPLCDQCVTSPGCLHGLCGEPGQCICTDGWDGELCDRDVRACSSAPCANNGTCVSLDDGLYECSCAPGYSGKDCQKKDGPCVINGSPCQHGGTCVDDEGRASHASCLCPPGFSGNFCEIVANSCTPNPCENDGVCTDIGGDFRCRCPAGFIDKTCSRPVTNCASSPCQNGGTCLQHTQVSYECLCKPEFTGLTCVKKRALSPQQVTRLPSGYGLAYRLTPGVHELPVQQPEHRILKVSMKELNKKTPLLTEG
Assay: scFv-phage ELISA; OD on DLK1 divided by OD on a-myc

Check out these entries, answers already filled in.
binder	Ratio
DLK1H06 (scFv, V domains shown, Monoclonal scFv on phage; VH3-23, A27) VH: QVQLVQSGGGLIQPGGSLRLSCAASGFTFSLYGMSWVRQAPGKGLEWVSSIPGSGTRTHYADSVKGRFTISRDNSKNTLFLQMNSLRAEDTAVYYCAKSTAYLFDYWGPGTLVTVSS VL: DIQMTQSPATLSLSPGERATLSCRASQSIRHYLAWYQQKPGQAPRLLIHGASSRATGIPDRFSGSGSGTDFTLTISRLEPEDFAVYYCQHYGSPLHSFGPGTKVEIK	2.47
DLK1H12 (scFv, V domains shown, Monoclonal scFv on phage; VH3-11, O12) VH: QVQLVQSGGGLVKPGGSLRLSCAASEFTFSDYYMSWVRQAPGKGLEWLSYISGSGITTYYADSVKGRFTISRDNGKKSLYLEMNSLRAEDTAVYYCARLQGHCSGGACSNWFDAWGQGTLITVSS VL: DIQMTQSPSSLSASVGDRLTITCRASQSILTYLNWYQQKPGKAPKLLIYAASSLQRGVPSRFSGSGSGTDFTLTISGLQPEDFATYYCQQGYGTPYTFGQGTKVDIK	4.75

Consider the additional binder presented here.
## Task Please list Ratio recorded for the binder DLK1A05 (scFv, V domains shown, Monoclonal scFv on phage; VH3-9, V1-13) VH: QMQLVESGGGLVQPGRSLRLSCAASGFTFDEHAMHWVRQAPGKGLEWVSGINWNSGKTGYADSVKGRFTISRDNGKNSLYLQMNSLRAEDTAVYYCAKSGGYGGNTNWYFDLWGRGTLVTVSS VL: QFVLTQPPSVSGAPGQNVTISCIGTSSNIGVGYDVHWYQQVPGTAPKLLVYGNNNRPSGVPDRFSGSKSGTSASLAITGLQAEDEADYYCQSYDSRLGVVFGGGTKLTVL
## Result 3.81

These entries and their values trace back to patent US20140072558A1.
